test: Quantitative highthroughput screen to assess conditional lethalithy of P12 Ichikawa cells grown in Human Plasma-Like Medium with dialyzed fetal bovine serum (HPLM+ds) (AID 1963879); conditions: ATP luminescence, 48 h; viability; series mostly up to 45.8 µM; further: nearly all actives have a fitted effect of over 35% in size
Records with an inconclusive call do not appear. Calls of active or inactive are those of the source. The call rests on the fitted dose curve; in most records, active means well fitted cell-killing curve with a large enough effect; inconclusive means small, poorly fitted or top-dose-only effect; inactive means flat fitted curve, though single readings scatter.
Labels: active, inactive

{"molecule": "CC(C)(CO)[C@@H](O)C(=O)NCCC(=O)O", "class": "inactive"}
{"molecule": "CN(Cc1cnc2nc(N)nc(N)c2n1)c1ccc(C(=O)N[C@@H](CCC(=O)O)C(=O)O)cc1", "class": "active"}
{"molecule": "CC1Cc2ccccc2N1NC(=O)c1ccc(Cl)c(S(N)(=O)=O)c1 (stereo not drawn)", "class": "inactive"}
{"molecule": "CC(=O)SCC(Cc1ccccc1)C(=O)NCC(=O)OCc1ccccc1 (stereo not drawn)", "class": "active"}
{"molecule": "COc1cc2c(cc1O)CCC1C2CC[C@@]2(C)C1CC[C@@H]2O (stereo partly drawn)", "class": "active"}
{"molecule": "CC(C[N+](C)(C)C)OC(N)=O (stereo not drawn)", "class": "inactive"}
{"molecule": "CO[C@@H]1[C@H](N(C)C(=O)c2ccccc2)C[C@H]2O[C@]1(C)n1c3ccccc3c3c4c(c5c6ccccc6n2c5c31)C(=O)NC4", "class": "active"}
{"molecule": "C#C[C@]1(O)CC[C@H]2[C@H]3CCc4cc(OC)ccc4[C@H]3CC[C@@]21C", "class": "inactive"}

All values here come from PubChem BioAssay (NCATS).
